Listed here are binders together with their documented binding score.
Molecular target: Circumsporozoite protein (CSP) (Plasmodium falciparum (isolate 3D7), UniProt Q7K740)
Sequence (Q7K740 19-374): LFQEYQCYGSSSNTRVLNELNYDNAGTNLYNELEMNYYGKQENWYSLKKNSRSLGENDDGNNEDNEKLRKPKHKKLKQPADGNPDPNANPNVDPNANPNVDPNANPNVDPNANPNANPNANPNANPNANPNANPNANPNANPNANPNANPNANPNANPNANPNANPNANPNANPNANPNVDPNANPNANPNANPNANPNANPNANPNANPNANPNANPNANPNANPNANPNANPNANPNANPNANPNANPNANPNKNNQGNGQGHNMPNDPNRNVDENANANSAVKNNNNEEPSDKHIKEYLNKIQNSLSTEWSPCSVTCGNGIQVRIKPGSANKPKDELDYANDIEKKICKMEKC
Assay: AVEXIS screen signal:noise (double-corrected)
No end group written: not given here.

# Binder, binding score
measured = [
    ("ADP299 (protein, bait human Fc-tagged dimer) MDLRQFLMCLSLCTAFALSKPTEKKDRVHHEPQLSDKVHNDAQSFDYDHDAFLGAEEAKTFDQLTPEESKERLGKIVSKIDGDKDGFVTVDELKDWIKFAQKRWIYEDVERQWKGHDLNEDGLVSWEEYKNATYGYVLDDPDPDDGFNYKQMMVRDERRFKMADKDGDLIATKEEFTAFLHPEEYDYMKDIVVQETMEDIDKNADGFIDLEEYIGDMYSHDGNTDEPEWVKTEREQFVEFRDKNRDGKMDKEETKDWILPSDYDHAEAEARHLVYESDQNKDGKLTKEEIVDKYDLFVGSQATDFGEALVRHDEF", 1.11),
    ("MTGLSMDGGGSPKGDVDPFYYDYETVRN (also: human Fc-tagged dimer) [ADP286]", 1.14),
    ("ADP153 (protein, bait human Fc-tagged dimer) MAGIWTLLPLVLTSVARLSSKSVNAQVTDINSKGLELRKTVTTVETQNLEGLHHDGQFCHKPCPPGERKARDCTVNGDEPDCVPCQEGKEYTDKAHFSSKCRRCRLCDEGHGLEVEINCTRTQNTKCRCKPNFFCNSTVCEHCDPCTKCEHGIIKECTLTSNTKCKEEGS", 1.01),
    ("ADP119 (protein, bait human Fc-tagged dimer) MDVCVRLALWLLWGLLLHQGQSLSHSHSEKATGTSSGANSEESTAAEFCRIDKPLCHSEDEKLSFEAVRNIHKLMDDDANGDVDVEESDEFLREDLNYHDPTVKHSTFHGEDKLISVEDLWKAWKSSEVYNWTVDEVVQWLITYVELPQYEETFRKLQLSGHAMPRLAVTNTTMTGTVLKMTDRSHRQKLQLKALDTVLFGPPLLTRHNHLKD", 1.89),
]
